Overview of recorded IC50 for various compounds
Target: Human Calpain 2/NS1 (Homo sapiens, UniProt P17655)
Sequence (P17655 whole entry): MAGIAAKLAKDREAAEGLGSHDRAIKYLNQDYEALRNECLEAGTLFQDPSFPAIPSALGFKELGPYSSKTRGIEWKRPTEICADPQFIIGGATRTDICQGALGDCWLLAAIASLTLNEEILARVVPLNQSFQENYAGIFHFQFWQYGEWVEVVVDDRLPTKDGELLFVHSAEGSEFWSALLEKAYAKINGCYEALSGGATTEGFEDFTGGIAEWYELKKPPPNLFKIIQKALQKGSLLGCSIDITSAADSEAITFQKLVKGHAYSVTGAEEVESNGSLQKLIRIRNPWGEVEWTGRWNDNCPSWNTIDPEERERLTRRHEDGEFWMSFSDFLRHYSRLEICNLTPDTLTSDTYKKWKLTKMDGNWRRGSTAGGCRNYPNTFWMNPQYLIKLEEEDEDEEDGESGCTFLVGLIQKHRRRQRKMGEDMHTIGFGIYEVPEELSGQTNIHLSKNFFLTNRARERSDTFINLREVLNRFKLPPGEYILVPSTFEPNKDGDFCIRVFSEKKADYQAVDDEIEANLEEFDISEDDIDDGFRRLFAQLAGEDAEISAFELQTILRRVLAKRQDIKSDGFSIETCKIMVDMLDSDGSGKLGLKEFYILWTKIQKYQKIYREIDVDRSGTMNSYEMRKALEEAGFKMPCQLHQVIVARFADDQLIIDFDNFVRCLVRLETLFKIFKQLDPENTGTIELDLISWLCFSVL
Sequence (P04632 whole entry partner): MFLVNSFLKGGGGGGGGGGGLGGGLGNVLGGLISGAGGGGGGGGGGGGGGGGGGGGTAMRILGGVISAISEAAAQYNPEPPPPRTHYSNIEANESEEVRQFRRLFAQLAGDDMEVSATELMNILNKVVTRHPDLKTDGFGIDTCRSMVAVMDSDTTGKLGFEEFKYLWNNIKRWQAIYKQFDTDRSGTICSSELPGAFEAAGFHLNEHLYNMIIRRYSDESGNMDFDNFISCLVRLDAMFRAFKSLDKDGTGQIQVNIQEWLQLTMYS
Assay: Biochemical inhibition of calpain 2, continuous fluorescence (FRET substrate) assay
Settings: mean, read-out: Human Calpain 2/NS1 IC50 (nM)_MEAN

>>> print(df.to_string())
                                   compound  assay_value
0  CCNC(=O)C(=O)[C@@H]1CCCCCCCCCCc2ccccc2C(=O)N1   > 10000 nM
1  CCOc1ccccc1CNC(=O)C(=O)C1CCCCOCCOCc2ccccc2C(=O)N1 (stereo not shown)    < 3000 nM
2     O=C[C@@H]1C/C=C\COCCOCc2ccccc2C(=O)N1    < 3000 nM

Could you now consider this next compound?
COc1ccc(CNC(=O)C(=O)C2CCCCOCCOCc3ccccc3C(=O)N2)cc1 (stereo not shown) tested on Human Calpain 2/NS1 (Homo sapiens, UniProt P17655) gave IC50: 3000 to 10000 nM

----------
IC50 values by entry
Target: Human Calpain 1/NS1 (Homo sapiens)
Sequence (P07384 whole entry): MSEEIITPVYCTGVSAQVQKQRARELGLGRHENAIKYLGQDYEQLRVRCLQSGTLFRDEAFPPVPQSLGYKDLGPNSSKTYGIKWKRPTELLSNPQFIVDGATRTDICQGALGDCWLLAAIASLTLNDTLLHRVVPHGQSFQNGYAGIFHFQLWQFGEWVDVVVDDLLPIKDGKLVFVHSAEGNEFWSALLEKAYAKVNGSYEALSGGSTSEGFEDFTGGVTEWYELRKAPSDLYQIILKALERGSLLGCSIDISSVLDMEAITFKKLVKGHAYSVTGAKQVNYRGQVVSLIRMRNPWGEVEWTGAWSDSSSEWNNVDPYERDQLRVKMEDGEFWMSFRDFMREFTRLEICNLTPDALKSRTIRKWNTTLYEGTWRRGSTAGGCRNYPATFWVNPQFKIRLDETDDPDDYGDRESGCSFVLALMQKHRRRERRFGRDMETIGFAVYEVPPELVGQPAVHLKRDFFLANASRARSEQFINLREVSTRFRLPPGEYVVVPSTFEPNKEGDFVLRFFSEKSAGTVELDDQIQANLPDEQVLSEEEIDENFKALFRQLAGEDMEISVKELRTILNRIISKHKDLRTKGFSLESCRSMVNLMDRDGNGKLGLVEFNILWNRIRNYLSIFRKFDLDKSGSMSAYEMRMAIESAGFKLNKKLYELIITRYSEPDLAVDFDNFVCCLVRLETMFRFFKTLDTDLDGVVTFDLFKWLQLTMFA
Sequence (P04632 whole entry partner): as the sequence (P04632 whole entry partner) above
Test: Biochemical inhibition of calpain 1, continuous fluorescence (FRET substrate) assay
Conditions: mean, read-out: Human Calpain 1/NS1 IC50 (nM)_MEAN

Observe how each entry below is paired with its result.
>>> print(df.to_string())
                                   molecule  assay_value
0  O=C[C@@H]1Cc2ccc(cc2)CCCCc2cccc(c2)-c2ccn(n2)-c2ncccc2C(=O)N1 [Compound 73]    < 3000 nM
1  O=C[C@@H]1Cc2cccc(c2)C=CCCOc2cccc(c2)-c2ncccc2C(=O)N1 [Compound 36]    < 3000 nM
2  O=C(NCc1cccnc1)C(=O)C1CCCCOCCOCc2ccccc2C(=O)N1 (stereo not shown) [Compound 103]   > 10000 nM
3  NC(=O)C(=O)[C@@H]1CCCCCOc2cccc(c2)-c2n[nH]cc2C(=O)N1 [Compound 140]    < 3000 nM

Note to self: IC50 recorded for O=C[C@@H]1CCCCCOc2cccc(c2)-c2ccccc2C(=O)N1 [Compound 30] was < 3000 nM

Entry O=C(NCc1ccc2c(c1)OCO2)C(=O)C1CCCCOCCOCc2ccccc2C(=O)N1 (stereo not shown) [Compound 81] — recorded IC50 = > 10000 nM

In plain terms, CS(=O)(=O)c1ccc(CNC(=O)C(=O)C2CCCCOCCOCc3ccccc3C(=O)N2)cc1 (stereo not shown) [Compound 121] has a documented IC50 of > 10000 nM

# IC50 of O=C[C@@H]1CC=CCCOc2nccc(n2)-c2ccccc2C(=O)N1 [Compound 40] = 3000 to 10000 nM

Form field IC50, entry O=C(NC1CC1)C(=O)[C@@H]1Cc2ccc(cc2)OC/C=C/COc2cccc(c2)-c2ccn(n2)-c2ncccc2C(=O)N1 [Compound 70] : < 3000 nM

For record O=C(NCCc1ccc(Cl)cc1)C(=O)[C@@H]1C/C=C/COCCOCc2ccccc2C(=O)N1 [Compound 78] the listed IC50 is 3000 to 10000 nM

----------
# IC50 listing for each entry below
Target: Human Calpain 9/NS1 (Homo sapiens, UniProt O14815)
Sequence (O14815 whole entry, one chain of several): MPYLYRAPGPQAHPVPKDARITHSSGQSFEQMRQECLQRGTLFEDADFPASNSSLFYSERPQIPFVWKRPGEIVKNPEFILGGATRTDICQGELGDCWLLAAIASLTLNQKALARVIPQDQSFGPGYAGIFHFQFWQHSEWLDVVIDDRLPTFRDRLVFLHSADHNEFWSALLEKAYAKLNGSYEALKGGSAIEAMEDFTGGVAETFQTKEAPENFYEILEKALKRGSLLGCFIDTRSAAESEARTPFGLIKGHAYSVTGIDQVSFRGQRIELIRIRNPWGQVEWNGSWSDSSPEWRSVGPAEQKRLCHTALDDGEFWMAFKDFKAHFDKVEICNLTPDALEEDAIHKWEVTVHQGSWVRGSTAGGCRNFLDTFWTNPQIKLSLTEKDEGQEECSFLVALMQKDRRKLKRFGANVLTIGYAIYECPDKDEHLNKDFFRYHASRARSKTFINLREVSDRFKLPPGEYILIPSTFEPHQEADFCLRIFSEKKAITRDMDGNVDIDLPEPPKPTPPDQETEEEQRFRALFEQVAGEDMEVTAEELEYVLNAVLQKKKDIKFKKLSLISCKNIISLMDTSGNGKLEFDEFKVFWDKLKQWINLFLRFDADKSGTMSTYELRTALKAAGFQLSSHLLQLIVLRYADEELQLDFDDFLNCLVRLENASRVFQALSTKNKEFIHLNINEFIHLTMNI
Assay: Biochemical inhibition of calpain 9, continuous fluorescence (FRET substrate) assay
Settings: mean, read-out: Human Calpain 9/NS1 IC50 (nM)_MEAN

>>> print(df.to_string())
                                   molecule  assay_value
0  NC(=O)C(=O)[C@@H]1C/C=C\CCOc2ccnc(n2)-c2ccccc2C(=O)N1 [Compound 138]    < 3000 nM
1  O=C[C@@H]1Cc2ccccc2CCCCCCOc2ccccc2C(=O)N1 [Compound 20]    < 3000 nM

For the next question, use this molecule.
// IC50 lookup, molecule = O=C[C@@H]1CCCCCCCCCCc2ccccc2C(=O)N1 [Compound 28] , result: < 3000 nM
